- tgt: Adenylate kinase 2, mitochondrial (Rattus norvegicus) (UniProt P29410)
- assay-method-text: Inhibition index was the ratio between KM of AMP and Ki of AK II
- Type: functional
endpoint: Inhibition index
Answer field: number only, no words.

1) CCC[C@@H](OP(=O)(O)O)[C@H]1OC(n2cnc3c(N)ncnc32)[C@H](O)[C@@H]1O (stereo not given in full) :: 0.025
2) CO[C@@H]1[C@H](O)[C@@H](COP(=O)(O)O)O[C@H]1n1cnc2c(N)ncnc21 :: 0.022
3) CN(C)c1nc(N)c2ncn(C3O[C@H](COP(=O)(O)O)[C@@H](O)[C@H]3O)c2n1 (stereo not given in full) :: 0.014
4) CC[C@H](OP(=O)(O)O)[C@H]1OC(n2cnc3c(N)ncnc32)[C@H](O)[C@@H]1O (stereo not given in full) :: 0.057

Continue with the compound presented below.
Identify measured Inhibition index associated with C=CC[C@]1(COP(=O)(O)O)OC(n2cnc3c(N)ncnc32)[C@H](O)[C@@H]1O (stereo not given in full)
0.21

---

- tgt: GTP:AMP phosphotransferase AK3, mitochondrial (Rattus norvegicus)
- assay-method-text: Relative Vmax value to rat adenylate kinase III.
endpoint: Relative Vmax

# annotated cases, reported Relative Vmax shown
1. Nc1ncnc2c1ncn2[C@@H]1O[C@H](CCP(=O)(O)O)[C@@H](O)[C@H]1O :: 21
2. CO[C@@H]1[C@H](O)[C@@H](COP(=O)(O)O)O[C@H]1n1cnc2c(N)ncnc21 :: > 0
3. Cn1cnc2c(ncn2[C@@H]2O[C@H](COP(=O)(O)O)[C@@H](O)[C@H]2O)c1=N :: 0

Identify measured Relative Vmax associated with CC(=O)NCCNc1ncnc2c1ncn2C1O[C@H](COP(=O)(O)O)[C@@H](O)[C@H]1O (some centres undefined)
0

Identify measured Relative Vmax associated with C[C@H](OP(=O)(O)O)[C@H]1OC(n2cnc3c(N)ncnc32)[C@H](O)[C@@H]1O (some centres undefined)
8

---

This section presents compounds with their documented Inhibition index values.
- tgt: Adenylate kinase isoenzyme 1 (Rattus norvegicus)
- assay-method-text: Inhibition index was the ratio between KM of AMP and Ki of AK M
- Assay type: functional
Answer field: number only, no words.

Identify measured Inhibition index associated with CO[C@@H]1[C@H](O)[C@@H](COP(=O)(O)O)O[C@H]1n1cnc2c(N)ncnc21
0.14

Identify measured Inhibition index associated with CO[C@H]1[C@@H](O)[C@H](n2cnc3c(N)ncnc32)O[C@@H]1COP(=O)(O)O
0.34

Identify measured Inhibition index associated with Nc1ncnc2c1ncn2[C@@H]1O[C@H](COS(=O)(=O)O)[C@@H](O)[C@H]1O
0.12

Identify measured Inhibition index associated with CCC[C@H](OP(=O)(O)O)[C@H]1OC(n2cnc3c(N)ncnc32)[C@H](O)[C@@H]1O (some centres undefined)
0.41

Identify measured Inhibition index associated with C=CC[C@]1(COP(=O)(O)O)OC(n2cnc3c(N)ncnc32)[C@H](O)[C@@H]1O (some centres undefined)
0.97

Identify measured Inhibition index associated with CCC1O[C@@H]2[C@H](O1)[C@@H](COP(=O)(O)O)O[C@H]2n1cnc2c(N)ncnc21 (some centres undefined)
0.089

Identify measured Inhibition index associated with CC1O[C@@H]2[C@H](O1)[C@@H](COP(=O)(O)O)O[C@H]2n1cnc2c(N)ncnc21 (some centres undefined)
0.13

Identify measured Inhibition index associated with Nc1ncnc2c1ncn2[C@@H]1O[C@H](/C=C/P(=O)(O)O)[C@@H](O)[C@H]1O
0.29

Identify measured Inhibition index associated with Nc1nc(Cl)nc2c1ncn2[C@@H]1O[C@H](COP(=O)(O)O)[C@@H](O)[C@H]1O
0.21

---

- tgt: Adenylate kinase isoenzyme 1 (Rattus norvegicus)
- assay-method-text: Relative Vmax value to Adenylate kinase M isoenzyme (adenylate kinase 1, AK1)
endpoint: Relative Vmax
Answer field: number only, no words.

1. CC[C@@H](OP(=O)(O)O)[C@H]1OC(n2cnc3c(N)ncnc32)[C@H](O)[C@@H]1O (some centres undefined) :: 0
2. Nc1ncnc2c1ncn2C(CO)OC(CO)COP(=O)(O)O (centres undefined) :: 0
3. CCSc1nc2c(N)ncnc2n1C1O[C@H](COP(=O)(O)O)[C@@H](O)[C@H]1O (some centres undefined) :: 0
4. Nc1ncnc2c1ncn2[C@@H]1O[C@H](COP(=O)(O)O)[C@@H](O)[C@H]1O :: 100
5. Cn1cnc2c(ncn2[C@@H]2O[C@H](COP(=O)(O)O)[C@@H](O)[C@H]2O)c1=N :: 0
6. COP(=O)(O)C[C@H]1OC(n2cnc3c(N)ncnc32)[C@H](O)[C@@H]1O (some centres undefined) :: 0
7. CN(C)c1nc(N)c2ncn(C3O[C@H](COP(=O)(O)O)[C@@H](O)[C@H]3O)c2n1 (some centres undefined) :: 0.04

Continue with the compound presented below.
Identify measured Relative Vmax associated with CNc1nc(N)c2ncn([C@@H]3O[C@H](COP(=O)(O)O)[C@@H](O)[C@H]3O)c2n1
0.7

---

- tgt: Adenylate kinase 2, mitochondrial (Rattus norvegicus) (UniProt P29410)
- assay-method-text: Relative Vmax value to rat adenylate kinase II.
endpoint: Relative Vmax

# annotated cases, reported Relative Vmax shown
1. CC(=O)NCCNc1ncnc2c1ncn2C1O[C@H](COP(=O)(O)O)[C@@H](O)[C@H]1O (stereo partly drawn) :: 0
2. Nc1ncnc2c1ncn2C(CO)OC(CO)COP(=O)(O)O (stereo not drawn) :: 0
3. C[C@@H]1[C@H](O)[C@@H](COP(=O)(O)O)O[C@H]1n1cnc2c(N)ncnc21 :: 29

Look up Adenylate kinase 2, mitochondrial (Rattus norvegicus) (UniProt P29410) data: Relative Vmax of CC1(C)O[C@@H]2[C@H](O1)[C@@H](COP(=O)(O)O)O[C@H]2n1cnc2c(N)ncnc21 , then report it.
0

Look up Adenylate kinase 2, mitochondrial (Rattus norvegicus) (UniProt P29410) data: Relative Vmax of Nc1ncnc2c1ncn2[C@@H]1O[C@H](/C=C/P(=O)(O)O)[C@@H](O)[C@H]1O , then report it.
12

Look up Adenylate kinase 2, mitochondrial (Rattus norvegicus) (UniProt P29410) data: Relative Vmax of CNc1ncnc2c1ncn2[C@@H]1O[C@H](COP(=O)(O)O)[C@@H](O)[C@H]1O , then report it.
0

Look up Adenylate kinase 2, mitochondrial (Rattus norvegicus) (UniProt P29410) data: Relative Vmax of C=CC[C@]1(COP(=O)(O)O)OC(n2cnc3c(N)ncnc32)[C@H](O)[C@@H]1O (stereo partly drawn) , then report it.
> 0

Look up Adenylate kinase 2, mitochondrial (Rattus norvegicus) (UniProt P29410) data: Relative Vmax of CSc1nc(N)c2ncn([C@@H]3O[C@H](COP(=O)(O)O)[C@@H](O)[C@H]3O)c2n1 , then report it.
> 0

---

This section presents molecules with their documented Relative Vmax values.
- tgt: UniProtKB P29411
- Sequence (P29411 whole entry): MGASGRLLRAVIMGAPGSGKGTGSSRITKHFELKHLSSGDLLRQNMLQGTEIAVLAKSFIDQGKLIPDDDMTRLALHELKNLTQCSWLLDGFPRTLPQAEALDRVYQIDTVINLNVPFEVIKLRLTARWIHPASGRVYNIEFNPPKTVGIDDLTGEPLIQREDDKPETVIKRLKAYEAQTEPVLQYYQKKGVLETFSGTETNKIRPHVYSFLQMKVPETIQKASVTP
- assay-method-text: Relative Vmax value to rat adenylate kinase III.
Answer field: number only, no words.

# annotated cases, reported Relative Vmax shown
1. Nc1ncnc2c1nc(Br)n2[C@@H]1O[C@H](COP(=O)(O)O)[C@@H](O)[C@H]1O :: 0
2. CNc1ncnc2c1ncn2[C@@H]1O[C@H](COP(=O)(O)O)[C@@H](O)[C@H]1O :: 0

Identify measured Relative Vmax associated with CC[C@@H](OP(=O)(O)O)[C@H]1OC(n2cnc3c(N)ncnc32)[C@H](O)[C@@H]1O (some centres undefined)
0
